# System: MDA-MB-231
# experiment: NCI tumour cell line growth inhibition, 48 h
Calls of active or inactive are those of the source. Cut-off read from the data, not from the text of the source: active = GI50 up to about 1.1 µM and inactive = higher.
The following compounds are shown together with reported GI50 values.

Solved cases (4 shown):
1. S=C1SC(=N\c2ccccc2)/C(=N/c2ccccc2)N1c1ccc2ccccc2c1 ... > 100 µM (inactive)
2. C/C(=N\N=C(/[SeH])N1CC2CCC(CC2)C1)c1ccccn1 ... 0.115 µM (active)
3. O=C(Nc1ccc(Cl)c(Cl)c1)N1N=C2c3ccccc3CCC2C1c1ccc(Cl)cc1 (stereo not given) ... > 100 µM (inactive)
4. O=C1C=C(NCCc2ccc(O)cc2)C(=O)C=C1NCCc1ccc(O)cc1 ... 47.1 µM (inactive)

Kindly consider the entry below.
For this compound ( CCOC(=O)[C@@]12C[C@](/C=C/OC)(O[Si](C)(C)C)[C@@]13c1cc(OC)c(OC)cc1CCN3C(=O)C2O (stereo not given in full) ), measured GI50 is > 100 µM (inactive)
